The measured values listed here are drawn from patent US20260274876A1.

# ASSAY_METHOD_TEXT: Plasma stability, human
# Type: in vitro ADME
# SETTINGS: 37° C., N.A. = no peak detected at 30 min
ENDPOINT_LABEL: half-life at 5 μM (min)
Lab book: enter the figure in min, no units written.

For the compound CC(C)[N+](C)(CCOC(=O)C1c2ccccc2Oc2ccccc21)C(C)C [Propantheline, reference compound] , give its reported half-life at 5 μM. 9.53

====

Parameter: recovery at 2 h, 5 μM. Scope: all listed entries.
# ASSAY_METHOD_TEXT: Intestinal mucosal permeation using Caco-2 cell monolayers
# SETTINGS: human, Caco-2, pH 7.4, Percentage recovery (%) B→A, Caco-2, B→A
Lab book: enter the figure in %, no units written.

Use these answered entries as a reference point.
COMPOUND	UNITS_SYMBOL	MEASURED_RESULT
CN(C)CCc1c[nH]c2cccc(O)c12 [Psilocin, 4-hydroxy-N,N-dimethyltryptamine, reference compound]	%	102
[2H]C([2H])(c1c[nH]c2cccc(OC(=O)CCCC(=O)Oc3cccc4[nH]cc(C([2H])([2H])[C@H]5CCCN5C([2H])([2H])[2H])c34)c12)[C@H]1CCCN1C([2H])([2H])[2H]	%	101

For the compound "CN1CCC[C@@H]1Cc1c[nH]c2cccc(O)c12" , give its reported recovery at 2 h, 5 μM. 92

For the compound "COc1cc2nc(N3CCN(C(=O)c4ccco4)CC3)nc(N)c2cc1OC" , give its reported recovery at 2 h, 5 μM. 105

For the compound CC(C)NCC(O)COc1cccc2ccccc12 (centres unmarked) , give its reported recovery at 2 h, 5 μM. 92.6

For the compound "CN(C)CCc1c[nH]c2cccc(OP(=O)(O)O)c12" , give its reported recovery at 2 h, 5 μM. 104

For the compound "CN1CCC[C@@H]1Cc1c[nH]c2cccc(OC(=O)CCCC(=O)Oc3cccc4[nH]cc(C[C@H]5CCCN5C)c34)c12" , give its reported recovery at 2 h, 5 μM. 110

For the compound "C[C@H]1O[C@@H](O[C@H]2[C@@H](O)C[C@H](O[C@H]3[C@@H](O)C[C@H](O[C@H]4CC[C@@]5(C)[C@H](CC[C@@H]6[C@@H]5C[C@@H](O)[C@]5(C)[C@@H](C7=CC(=O)OC7)CC[C@]65O)C4)O[C@@H]3C)O[C@@H]2C)C[C@H](O)[C@@H]1O" , give its reported recovery at 2 h, 5 μM. 104
